Target: human AMPK α1β1γ1 enzyme (Homo sapiens, UniProt Q13131+Q9Y478)
Construct: purchased Carna Biosciences, Inc
Sequence (Q13131 10-559 limits assumed): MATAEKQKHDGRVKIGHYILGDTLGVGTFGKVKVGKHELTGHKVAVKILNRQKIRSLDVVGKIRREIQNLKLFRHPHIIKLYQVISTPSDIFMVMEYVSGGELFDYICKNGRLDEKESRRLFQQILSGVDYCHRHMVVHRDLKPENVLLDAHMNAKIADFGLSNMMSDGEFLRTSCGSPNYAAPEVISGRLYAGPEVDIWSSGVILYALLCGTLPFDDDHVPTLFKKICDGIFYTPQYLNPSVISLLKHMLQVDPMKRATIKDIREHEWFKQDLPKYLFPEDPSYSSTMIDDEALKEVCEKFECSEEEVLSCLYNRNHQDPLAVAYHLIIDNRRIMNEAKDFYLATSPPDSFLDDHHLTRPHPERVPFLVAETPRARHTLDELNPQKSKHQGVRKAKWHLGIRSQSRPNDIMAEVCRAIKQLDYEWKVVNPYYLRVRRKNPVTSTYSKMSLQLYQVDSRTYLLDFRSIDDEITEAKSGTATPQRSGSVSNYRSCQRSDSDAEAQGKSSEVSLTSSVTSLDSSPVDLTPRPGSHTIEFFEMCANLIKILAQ
Sequence (Q9Y478 whole entry): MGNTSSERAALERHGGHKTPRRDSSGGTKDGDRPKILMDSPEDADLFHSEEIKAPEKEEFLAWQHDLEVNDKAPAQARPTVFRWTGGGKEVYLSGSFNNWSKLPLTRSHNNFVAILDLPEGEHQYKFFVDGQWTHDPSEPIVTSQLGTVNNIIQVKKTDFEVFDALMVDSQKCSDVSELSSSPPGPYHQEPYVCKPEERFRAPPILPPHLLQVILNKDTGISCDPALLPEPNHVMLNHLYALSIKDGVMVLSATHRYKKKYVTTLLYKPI
Sequence (P54619 whole entry partner): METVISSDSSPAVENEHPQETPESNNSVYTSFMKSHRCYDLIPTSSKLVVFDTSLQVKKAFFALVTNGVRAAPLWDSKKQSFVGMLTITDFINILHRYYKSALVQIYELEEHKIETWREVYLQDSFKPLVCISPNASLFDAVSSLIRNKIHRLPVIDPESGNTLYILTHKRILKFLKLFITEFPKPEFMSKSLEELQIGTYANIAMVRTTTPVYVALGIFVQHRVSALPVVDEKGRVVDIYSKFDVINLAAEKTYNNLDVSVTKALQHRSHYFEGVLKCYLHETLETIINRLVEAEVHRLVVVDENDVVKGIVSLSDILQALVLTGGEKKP
Assay: AMPK activator evaluation, Test Example 1 (mobility shift, FL-Peptide 7)
Type: biochemical
Conditions: human AMPK α1β1γ1, control without compound = 100%
Source text: […] To detect phosphorylated fluorescent substrates, the reaction liquid was applied to a measuring device, LabChip EZ Reader II manufactured by Caliper Life Science, Inc., for detecting fluorescence by using differences in mobility due to differences in charge. […]
# EC150 (compound concentration showing 150% relative to the control) values compiled below
A number alone suffices; assume nM.

Field: example entries. Status: answers known.
CC(C)(C(N)=O)c1ccc(Oc2nc3nc(-c4ccc(N5CCOCC5)cc4)c(Cl)cc3[nH]2)cc1F 69
CC(=O)NC(C)(C)c1ccc(Oc2nc3nc(-c4ccc(C5(CO)CC5)cc4)c(Cl)cc3[nH]2)cn1 260
CC(C)(C(N)=O)c1ccc(Oc2nc3nc(-c4ccc(N5CCOCC5)cc4)c(Cl)cc3[nH]2)cc1 1700

Then this compound:
Param item = `Cc1ccc(Oc2nc3cc(Cl)c(-c4ccc(-c5ccccc5O)cc4)nc3[nH]2)cc1C(=O)O` ; retrieve measured EC150 (compound concentration showing 150% relative to the control).
0.42
